procedure.text: AUC (0 to t) in male Sprague-Dawley rat at 1000 mg/kg, po measured on day 14
Type: ADME, organism-based
Set-up: dose 1000 mg/kg, route oral
condition.label: plasma
observation.type: AUC(0-t) (ng·h/mL)
Write it as a number; the unit ng·h/mL goes unstated.

Value of AUC(0-t) reported for the molecule "COCCOCn1ccc(NC(=O)c2cc(Oc3ccc(S(C)(=O)=O)cc3)cc(-c3ncccc3C)c2)n1" is 25000

---

procedure.text: Cmax in male Sprague-Dawley rat at 1000 mg/kg, po measured on day 1
Format: ADME, organism-based
Parameters: dose 1000 mg/kg, route oral
condition.label: in vivo
observation.type: Cmax (ng/mL)
Write it as a number; the unit ng/mL goes unstated.

Value of Cmax reported for the compound "COCCOCn1ccc(NC(=O)c2cc(Oc3ccc(S(C)(=O)=O)cc3)cc(-c3ncccc3C)c2)n1" is 4250
